Values were extracted from patent US20130158112A1.

# Tested on: THLE-3 human hepatoma cells
# experimentalDetails: Drug activity persistence after incubation with THLE-3 hepatoma cells
# Format: in vitro ADME
# measurementSetup: after 24 h incubation with hepatoma cells
Below, each entry is listed alongside its reported % remaining Activity.
readoutName: % remaining Activity (%)

[[record]]
compound = "O=C(NCCSCc1cccc(I)c1)c1c(Cl)cccc1Cl [Compound 53]"
unitinfo = "%"
recordedvalue = 47

[[record]]
compound = "Cc1cccc(CSCCNC(=O)c2c(Cl)cccc2Cl)c1 [Compound 48]"
unitinfo = "%"
recordedvalue = 54

[[record]]
compound = "COc1cccc(CSCCNC(=O)c2c(Cl)cccc2Cl)c1 [Compound 27]"
unitinfo = "%"
recordedvalue = 37

[[record]]
compound = "O=C(NCCSCc1ccccc1)c1c(Cl)cccc1Cl [Compound 65]"
unitinfo = "%"
recordedvalue = 52

[[record]]
compound = "COc1cc(Cl)cc(CSCCNC(=O)c2c(Cl)cccc2Cl)c1 [Compound 73]"
unitinfo = "%"
recordedvalue = 49

[[record]]
compound = "O=C(NCCSCc1cccc(O)c1)c1c(Cl)cccc1Cl [Compound 29]"
unitinfo = "%"
recordedvalue = 41

[[record]]
compound = "O=C(NCCSCc1ccccc1Cl)c1c(Cl)cccc1Cl [Compound 76]"
unitinfo = "%"
recordedvalue = 65

